target: CYP2D6 (Homo sapiens, UniProt P10635); construct: a human liver microsome solution; from tissue; host or cells: human liver microsomes; test: Inhibition against cytochrome P450 isoenzyme, human liver microsomes; assay type: in vitro ADME
Sequence (P10635 whole entry): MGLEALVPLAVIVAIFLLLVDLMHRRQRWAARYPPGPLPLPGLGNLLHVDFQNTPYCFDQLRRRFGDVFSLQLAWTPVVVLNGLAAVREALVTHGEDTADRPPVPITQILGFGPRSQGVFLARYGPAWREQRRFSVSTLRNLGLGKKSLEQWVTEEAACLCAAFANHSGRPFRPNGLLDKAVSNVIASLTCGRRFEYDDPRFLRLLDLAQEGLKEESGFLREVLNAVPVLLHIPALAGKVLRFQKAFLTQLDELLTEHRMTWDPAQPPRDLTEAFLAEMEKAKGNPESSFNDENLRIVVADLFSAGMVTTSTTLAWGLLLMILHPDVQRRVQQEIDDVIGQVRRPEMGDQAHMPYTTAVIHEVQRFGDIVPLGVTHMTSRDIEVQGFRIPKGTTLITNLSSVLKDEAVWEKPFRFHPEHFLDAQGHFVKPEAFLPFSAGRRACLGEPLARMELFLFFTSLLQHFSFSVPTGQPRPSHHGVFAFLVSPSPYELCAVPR
attribute.measured: IC50 (µM)

The examples below pair each entry with its known result.
O=C1NOCc2c(-c3ccc(C4CCCN4)c(F)c3)[nH]c3cccc1c23 (stereo not shown) : 19.2
CC1(c2ccc(-c3[nH]c4cc(F)cc5c4c3CONC5=O)cc2)CCCN1 (stereo not shown) : 11.6

[P] CC1(c2ccc(-c3[nH]c4cc(F)cc5c4c3CONC5=O)cc2F)CCCN1 (single isomer, unassigned)
[Q] O=C1NOCc2c(-c3ccc(C4CCCN4)cc3)[nH]c3cc(F)cc1c23 (single isomer, unassigned)
[ask] Please let me know which one, P or Q , has a lower measured IC50 value. API: response body contains the label of the selected item.
[reply] Q
(Q: 6.98 µM, P: 20.2 µM)

###

target: CYP2C9 (Homo sapiens); construct: a human liver microsome solution; from tissue; host or cells: human liver microsomes; assay: Inhibition against cytochrome P450 isoenzyme, human liver microsomes; type: in vitro ADME
Sequence (P11712 whole entry): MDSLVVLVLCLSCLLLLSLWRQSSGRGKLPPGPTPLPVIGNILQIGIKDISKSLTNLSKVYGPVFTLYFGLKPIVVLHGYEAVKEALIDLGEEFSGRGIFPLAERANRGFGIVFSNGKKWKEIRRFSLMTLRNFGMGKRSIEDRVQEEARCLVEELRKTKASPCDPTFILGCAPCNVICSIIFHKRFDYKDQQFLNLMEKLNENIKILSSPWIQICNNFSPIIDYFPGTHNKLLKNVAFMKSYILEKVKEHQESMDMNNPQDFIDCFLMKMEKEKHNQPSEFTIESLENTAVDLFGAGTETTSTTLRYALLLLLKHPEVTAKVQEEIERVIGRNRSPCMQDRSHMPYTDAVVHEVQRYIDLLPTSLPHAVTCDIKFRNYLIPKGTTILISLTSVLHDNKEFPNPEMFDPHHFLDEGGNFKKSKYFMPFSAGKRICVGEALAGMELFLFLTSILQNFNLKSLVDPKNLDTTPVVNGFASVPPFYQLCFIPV
attribute.measured: IC50

The examples below pair each entry with its known result.
O=C1NOCc2c(-c3ccc(C4CCCN4)c(F)c3)[nH]c3cccc1c23 (stereo not shown) [Example 11_A] : > 50 µM
CC1(c2ccc(-c3[nH]c4cc(F)cc5c4c3CONC5=O)cc2F)CCCN1 (single isomer, unassigned) [Example 26_A] : 49.7 µM
O=C1NOCc2c(-c3ccc(C4CCCN4)cc3)[nH]c3cc(F)cc1c23 (single isomer, unassigned) [Example 24_A] : > 50 µM

Now consider a different molecule.
[ask] Given the entry CC1(c2ccc(-c3[nH]c4cc(F)cc5c4c3CONC5=O)cc2)CCCN1 (stereo not shown) [Example 25_A] , report its measured IC50.
[reply] > 50 µM

###

Experiment: Single-dose pharmacokinetic study in mice
Format: in vivo
Details: mouse, plasma; male C57BL/6 mice; IV: 1 mg/kg PO: 5 mg/kg; read-out: Apparent volume of distribution
Experimental: Experimental Example 8: Single-Dose Pharmacokinetic Study in Mice […] Experimental method: healthy adult male C57BL/6 mice were selected for intragastric administration. […] After pretreatment of the samples, the drug concentration was measured by LC-MS/MS, and pharmacokinetic parameters were calculated using Phoenix WinNonlin software.
attribute.measured: Vd (L/kg)

The examples below pair each entry with its known result.
CC1(c2ccc(-c3[nH]c4cc(F)cc5c4c3CONC5=O)cc2F)CCCN1 (single isomer, unassigned) : 8.22
CC1(c2ccc(-c3[nH]c4cc(F)cc5c4c3CONC5=O)cc2)CCCN1 (stereo not shown) : 9.44

[a] O=C1NOCc2c(-c3ccc(C4CCCN4)cc3)[nH]c3cc(F)cc1c23 (single isomer, unassigned)
[b] CNCc1ccc(-c2[nH]c3cc(F)cc4c3c2CCNC4=O)cc1 [Rucaparib, reference compound]
[ask] Could you kindly indicate whether a or b has the higher Vd value? API: response body contains the label of the selected item.
[reply] b

###

test: Metabolic stability in liver microsomes, rat; type: in vitro ADME; details: Rat liver microsomes 0.5 mg/mL, 1 μM compound, NADPH, 37° C.
attribute.measured: Residual content after 60 min of incubation (%)

The examples below pair each entry with its known result.
CC1(c2ccc(-c3[nH]c4cccc5c4c3CONC5=O)cc2)CCCN1 (centres unmarked) [Example 6_A] : 55.4
CC1(c2ccc(-c3[nH]c4cc(F)cc5c4c3CONC5=O)cc2)CCCN1 (centres unmarked) [Example 25_A] : 31.8
O=C1NOCc2c(-c3ccc(C4CCCN4)cc3)[nH]c3cc(F)cc1c23 (single isomer, unassigned) [Example 24_A] : 60.6

[a] O=C1NOCc2c(-c3ccc(C4CCCN4)c(F)c3)[nH]c3cccc1c23 (centres unmarked) [Example 11_A]
[b] CC1(c2ccc(-c3[nH]c4cc(F)cc5c4c3CONC5=O)cc2F)CCCN1 (single isomer, unassigned) [Example 26_A]
[ask] Could you kindly indicate whether a or b has the higher Residual content after 60 min of incubation value? API: response body contains the label of the selected item.
[reply] a
(a: 58.1%, b: 34.5%)

###

assay: Single-dose pharmacokinetic study in mice; format: in vivo; conditions: mouse, plasma; male C57BL/6 mice; intravenous 1 mg/kg; read-out: AUC0-last (intravenous injection)
attribute.measured: AUC(0-t) (nM·h)

CC1(c2ccc(-c3[nH]c4cc(F)cc5c4c3CONC5=O)cc2)CCCN1 (stereo not drawn) [Example 25_A] : 958

[I] O=C1NOCc2c(-c3ccc(C4CCCN4)cc3)[nH]c3cc(F)cc1c23 (single isomer, unassigned) [Example 24_A]
[II] CC1(c2ccc(-c3[nH]c4cc(F)cc5c4c3CONC5=O)cc2F)CCCN1 (single isomer, unassigned) [Example 26_A]
[ask] Could you kindly indicate whether I or II has the higher AUC(0-t) value? API: response body contains the label of the selected item.
[reply] I

###

Record: IC50 reported on UniProt P09874.
attribute.measured: IC50 (nM)

The examples below pair each entry with its known result.
CC1(c2ccc(-c3[nH]c4cc(F)cc5c4c3CONC5=O)cc2)CCCN1 (stereo not shown) [Example 25_B] : 2.8
O=C1NOCc2c(-c3ccc(C4CCCN4)c(F)c3)[nH]c3cccc1c23 (stereo not shown) : 3.6
O=C1NOCc2c(-c3ccc(C4CCCN4)c(F)c3)[nH]c3cc(F)cc1c23 (single isomer, unassigned) [Example 28_A] : 2.9
CC1(c2ccc(-c3[nH]c4cccc5c4c3CONC5=O)cc2)CCCN1 (stereo not shown) : 2.8
CC1(c2ccc(-c3[nH]c4cc(F)cc5c4c3CONC5=O)cc2F)CCCN1 (single isomer, unassigned) : 3.4

[A] O=C1NOCc2c(-c3ccc(C4CCCN4)c(F)c3)[nH]c3cc(F)cc1c23 (single isomer, unassigned) [Example 28_B]
[B] O=C1NOCc2c(-c3ccc(C4CCCN4)cc3F)[nH]c3cc(F)cc1c23 (single isomer, unassigned) [Example 22_A]
[ask] Please let me know which one, A or B , has a lower measured IC50 value. API: response body contains the label of the selected item.
[reply] A

###

experiment: Metabolic stability in liver microsomes, mouse; type: in vitro ADME; conditions: Mouse liver microsomes 0.5 mg/mL, 1 μM compound, NADPH, 37° C.
attribute.measured: Residual content after 60 min of incubation (%)

CC1(c2ccc(-c3[nH]c4cc(F)cc5c4c3CONC5=O)cc2F)CCCN1 (single isomer, unassigned) [Example 26_A] : 57.7
CC1(c2ccc(-c3[nH]c4cc(F)cc5c4c3CONC5=O)cc2)CCCN1 (centres unmarked) [Example 25_A] : 40.7
O=C1NOCc2c(-c3ccc(C4CCCN4)cc3)[nH]c3cc(F)cc1c23 (single isomer, unassigned) [Example 24_A] : 52.3
CC1(c2ccc(-c3[nH]c4cccc5c4c3CONC5=O)cc2)CCCN1 (centres unmarked) [Example 6_A] : 45.6
O=C1NOCc2c(-c3ccc(C4CCCN4)c(F)c3)[nH]c3cccc1c23 (centres unmarked) [Example 11_A] : 57.1

###

biological target: CYP1A2 (Homo sapiens); construct: a human liver microsome solution; from tissue; host or cells: human liver microsomes; assay: Inhibition against cytochrome P450 isoenzyme, human liver microsomes; format: in vitro ADME
Sequence (P05177 whole entry): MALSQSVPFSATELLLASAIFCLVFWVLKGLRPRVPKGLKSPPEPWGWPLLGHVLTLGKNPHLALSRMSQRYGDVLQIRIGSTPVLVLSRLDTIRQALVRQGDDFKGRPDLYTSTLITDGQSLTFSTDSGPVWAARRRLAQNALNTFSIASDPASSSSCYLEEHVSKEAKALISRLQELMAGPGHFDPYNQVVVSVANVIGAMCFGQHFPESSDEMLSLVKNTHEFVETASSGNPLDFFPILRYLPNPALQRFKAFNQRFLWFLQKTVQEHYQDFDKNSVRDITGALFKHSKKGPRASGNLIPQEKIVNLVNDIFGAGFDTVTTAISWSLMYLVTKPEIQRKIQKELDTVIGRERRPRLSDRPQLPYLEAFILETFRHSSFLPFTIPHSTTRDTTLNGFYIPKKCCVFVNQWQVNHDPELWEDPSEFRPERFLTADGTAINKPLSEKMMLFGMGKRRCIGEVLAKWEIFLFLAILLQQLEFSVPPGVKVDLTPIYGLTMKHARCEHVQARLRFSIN
Measured IC50 values are reported for all entries that follow.

CC1(c2ccc(-c3[nH]c4cc(F)cc5c4c3CONC5=O)cc2)CCCN1 (stereo not shown) : > 50 µM
CC1(c2ccc(-c3[nH]c4cc(F)cc5c4c3CONC5=O)cc2F)CCCN1 (single isomer, unassigned) : > 50 µM
O=C1NOCc2c(-c3ccc(C4CCCN4)c(F)c3)[nH]c3cccc1c23 (stereo not shown) : > 50 µM

Now consider a different compound.
[ask] Hello, I am looking for reported IC50 with CYP1A2 (Homo sapiens) for O=C1NOCc2c(-c3ccc(C4CCCN4)cc3)[nH]c3cc(F)cc1c23 (single isomer, unassigned) . Could you help?
[reply] 29.5 µM

###

molecular target: PARP1 (Homo sapiens, UniProt P09874); construct: purchased TREVIGEN; experiment: PARP-1 enzymatic experiment (HT Universal Chemiluminescent PARP Assay kit); format: biochemical; settings: chemiluminescence
Sequence (P09874 whole entry): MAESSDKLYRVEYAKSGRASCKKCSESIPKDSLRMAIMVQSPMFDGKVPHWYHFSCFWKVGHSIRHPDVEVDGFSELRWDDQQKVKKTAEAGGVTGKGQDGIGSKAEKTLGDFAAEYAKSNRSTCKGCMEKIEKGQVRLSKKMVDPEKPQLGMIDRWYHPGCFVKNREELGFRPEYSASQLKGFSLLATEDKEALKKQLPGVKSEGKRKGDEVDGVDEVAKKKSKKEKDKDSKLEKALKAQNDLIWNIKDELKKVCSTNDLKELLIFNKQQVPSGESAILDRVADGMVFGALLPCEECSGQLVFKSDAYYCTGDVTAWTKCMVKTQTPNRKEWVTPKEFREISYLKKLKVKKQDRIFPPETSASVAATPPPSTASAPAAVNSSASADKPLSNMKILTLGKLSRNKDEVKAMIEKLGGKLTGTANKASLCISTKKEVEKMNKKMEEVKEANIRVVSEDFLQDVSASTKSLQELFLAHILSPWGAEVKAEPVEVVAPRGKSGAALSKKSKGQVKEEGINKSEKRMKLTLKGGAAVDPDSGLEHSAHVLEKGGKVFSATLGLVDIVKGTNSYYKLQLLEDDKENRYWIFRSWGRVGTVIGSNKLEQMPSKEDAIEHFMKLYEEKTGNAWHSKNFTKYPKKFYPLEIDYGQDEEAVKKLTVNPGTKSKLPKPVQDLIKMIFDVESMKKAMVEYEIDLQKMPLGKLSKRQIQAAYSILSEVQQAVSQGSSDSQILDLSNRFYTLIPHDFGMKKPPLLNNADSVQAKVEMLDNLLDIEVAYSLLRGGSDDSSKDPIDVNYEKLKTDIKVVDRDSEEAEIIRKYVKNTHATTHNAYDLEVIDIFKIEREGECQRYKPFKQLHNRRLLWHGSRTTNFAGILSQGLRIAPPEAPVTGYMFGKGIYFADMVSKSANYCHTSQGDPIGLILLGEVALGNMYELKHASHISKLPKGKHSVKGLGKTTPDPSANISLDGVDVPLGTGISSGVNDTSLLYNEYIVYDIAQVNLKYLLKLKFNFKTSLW
attribute.measured: IC50 (nM)

The examples below pair each entry with its known result.
O=C1NOCc2c(-c3ccc(C4CCCN4)cc3F)[nH]c3cc(F)cc1c23 (single isomer, unassigned) [Example 22_B] : 4.2
CC1(c2ccc(-c3[nH]c4cc(F)cc5c4c3CONC5=O)cc2)CCCN1 (centres unmarked) [Example 25_A] : 2.3

[a] O=C1NOCc2c(-c3ccc(C4CCCN4)cc3)[nH]c3cc(F)cc1c23 (single isomer, unassigned)
[b] [2H]C1(c2ccc(-c3[nH]c4cccc5c4c3CONC5=O)cc2F)CCCN1 (centres unmarked)
[c] [2H]C1([2H])ONC(=O)c2cccc3[nH]c(-c4ccc(C5(C)CCCN5)c(F)c4)c1c23 (centres unmarked)
[ask] Sort the 3 compounds by IC50; largest first, smallest last. Give your ranking as a list of the labels in the requested order.
[reply] b, c, a
(b: 7.1 nM, c: 3.7 nM, a: 2 nM)
